Tested on: IgE (Homo sapiens), P01854-1
Sequence (P01854 other isoform, or with tags, fused parts or gaps): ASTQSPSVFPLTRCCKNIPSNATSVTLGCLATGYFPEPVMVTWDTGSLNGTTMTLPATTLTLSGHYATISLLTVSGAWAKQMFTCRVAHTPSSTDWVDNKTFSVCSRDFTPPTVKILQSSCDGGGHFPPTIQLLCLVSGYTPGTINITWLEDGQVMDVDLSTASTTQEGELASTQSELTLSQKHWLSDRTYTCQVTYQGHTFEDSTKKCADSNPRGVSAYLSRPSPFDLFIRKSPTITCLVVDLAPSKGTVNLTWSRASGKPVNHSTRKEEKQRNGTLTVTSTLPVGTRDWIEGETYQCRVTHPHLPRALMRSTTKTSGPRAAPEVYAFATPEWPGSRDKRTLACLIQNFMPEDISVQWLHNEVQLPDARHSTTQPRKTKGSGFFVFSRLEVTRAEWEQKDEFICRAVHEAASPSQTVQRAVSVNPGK
Test: filter
Conditions: dRmY; 2'-deoxy-5mC at 11 and 22; DPBS with Ca/Mg, BSA, ssDNA, tRNA; parent 20 nM
REPORTED METRIC: pKd
pKd field: float, defined as -log10 of concentration (mol/L).

QUERY: Provide pKd value for the following sequence: AGCCUGGGGACCCAUGGGGGGCU [ARC753]
RESULT: 7.82

* * *

Test system: IgE (Homo sapiens), P01854-1
Experiment: filter
Details: as ARC1335 with dI at 18; 3'-idT [18]; DPBS with Ca/Mg, BSA, RT
REPORTED METRIC: Kd
The answer consists of two parts: a number and, after it, its unit.

QUERY: Provide Kd value for the following sequence: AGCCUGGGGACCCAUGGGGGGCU [ARC1564]
RESULT: 0.5 nM
